Cited source: patent US10780090B2

Target: recombinant human SAE enzyme (Homo sapiens (Human))
Sequence (Q9UBT2 whole entry): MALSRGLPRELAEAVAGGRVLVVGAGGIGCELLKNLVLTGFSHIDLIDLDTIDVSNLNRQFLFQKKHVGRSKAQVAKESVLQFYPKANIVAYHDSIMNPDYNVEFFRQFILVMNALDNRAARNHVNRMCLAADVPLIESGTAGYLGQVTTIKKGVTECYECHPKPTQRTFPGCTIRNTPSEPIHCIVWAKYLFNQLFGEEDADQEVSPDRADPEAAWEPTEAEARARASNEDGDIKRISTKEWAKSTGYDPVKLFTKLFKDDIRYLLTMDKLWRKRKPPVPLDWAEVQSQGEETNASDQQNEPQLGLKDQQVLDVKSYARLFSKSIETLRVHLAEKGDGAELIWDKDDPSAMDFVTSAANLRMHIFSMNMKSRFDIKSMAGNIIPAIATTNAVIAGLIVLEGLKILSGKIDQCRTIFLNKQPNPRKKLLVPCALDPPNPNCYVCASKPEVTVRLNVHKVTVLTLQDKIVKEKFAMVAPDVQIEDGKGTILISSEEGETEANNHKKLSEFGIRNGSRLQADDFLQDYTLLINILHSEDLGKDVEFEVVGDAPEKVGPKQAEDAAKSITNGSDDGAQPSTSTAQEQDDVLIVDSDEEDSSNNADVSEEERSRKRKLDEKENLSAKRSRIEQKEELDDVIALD
Sequence (Q9UBE0 whole entry partner): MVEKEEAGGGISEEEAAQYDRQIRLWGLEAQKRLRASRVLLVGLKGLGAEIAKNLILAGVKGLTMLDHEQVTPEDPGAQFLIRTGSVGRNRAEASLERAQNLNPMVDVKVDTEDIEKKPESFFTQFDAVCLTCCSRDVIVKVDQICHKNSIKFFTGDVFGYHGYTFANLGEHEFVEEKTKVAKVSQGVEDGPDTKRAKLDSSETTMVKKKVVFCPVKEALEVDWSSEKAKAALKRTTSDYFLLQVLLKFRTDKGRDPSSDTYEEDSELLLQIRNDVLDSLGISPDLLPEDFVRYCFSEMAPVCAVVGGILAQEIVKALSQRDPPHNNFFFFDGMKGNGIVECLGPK
Assay: SAE HTRF enzyme assay
Format: biochemical
Conditions: SAE inhibition at compound concentration 0.111 μM; read-out: Percent Inhibition
Some compounds, each annotated with its measured inhibition at 0.111 µM.

>  <compound>
Cc1cccc(Cc2csc(C(=O)c3cncnc3N[C@@H]3C[C@H](COS(N)(=O)=O)[C@@H](O)C3)n2)c1 [I-351]

>  <inhibition at 0.111 µM [%]>
93

$$$$
>  <compound>
Cc1sc(C(=O)c2cncnc2N[C@@H]2C[C@H](COS(N)(=O)=O)[C@@H](O)C2)cc1C1=NCCc2ccc(Cl)cc21 [I-360]

>  <inhibition at 0.111 µM [%]>
95

$$$$
>  <compound>
Cc1sc(C(=O)c2cncnc2N[C@@H]2C[C@H](COS(N)(=O)=O)[C@@H](O)C2)cc1-c1nccc2ccc(Cl)cc12 [I-358]

>  <inhibition at 0.111 µM [%]>
96

$$$$
>  <compound>
Cc1sc(C(=O)c2cncnc2N[C@@H]2C[C@H](COS(N)(=O)=O)[C@@H](OC(=O)c3cccc(COP(=O)(O)O)c3)C2)cc1[C@@H]1OCCc2ccc(Cl)cc21 [I-345]

>  <inhibition at 0.111 µM [%]>
5

$$$$
>  <compound>
NS(=O)(=O)OC[C@H]1C[C@@H](Nc2ncncc2C(=O)c2ncc(Cc3ccccc3)s2)[C@H](O)[C@@H]1O [I-350]

>  <inhibition at 0.111 µM [%]>
75

$$$$
>  <compound>
Cc1sc(C(=O)c2cncnc2N[C@@H]2C[C@H](COS(N)(=O)=O)[C@@H](OC(=O)Cc3ccc(OP(=O)(O)O)cc3)C2)cc1[C@@H]1OCCc2ccc(Cl)cc21 [I-364]

>  <inhibition at 0.111 µM [%]>
13

$$$$
>  <compound>
Cc1sc(C(=O)c2cncnc2N[C@@H]2C[C@H](COS(N)(=O)=O)[C@@H](O)[C@H]2O)nc1Cc1cccc(Cl)c1 [I-352]

>  <inhibition at 0.111 µM [%]>
100

$$$$
>  <compound>
Cc1sc(C(=O)c2cncnc2N[C@@H]2C[C@H](COS(N)(=O)=O)[C@@H](O)C2)nc1Cc1cccc(Cl)c1 [I-353]

>  <inhibition at 0.111 µM [%]>
98

$$$$
>  <compound>
Cc1sc(C(=O)c2cncnc2N[C@@H]2C[C@H](COS(N)(=O)=O)[C@@H](OC(=O)CN)C2)cc1[C@@H]1OCCc2ccc(Cl)cc21 [I-330]

>  <inhibition at 0.111 µM [%]>
34

$$$$
>  <compound>
Cc1sc(C(=O)c2cncnc2N[C@@H]2C[C@H](COS(N)(=O)=O)[C@@H](OC(=O)[C@@H](N)C(C)C)C2)cc1[C@@H]1OCCc2ccc(Cl)cc21 [I-338]

>  <inhibition at 0.111 µM [%]>
56

$$$$
>  <compound>
Cc1sc(C(=O)c2cncnc2N[C@@H]2C[C@H](COS(N)(=O)=O)[C@@H](O)C2)cc1[C@@H]1SCc2ccc(Cl)cc21 (mixture of isomers) [I-359a]

>  <inhibition at 0.111 µM [%]>
92

$$$$
>  <compound>
Cc1sc(C(=O)c2cncnc2N[C@@H]2C[C@H](COS(N)(=O)=O)[C@@H](O)[C@H]2O)nc1Cc1cccc(Br)c1 [I-354]

>  <inhibition at 0.111 µM [%]>
100

$$$$
